Values were extracted from PubChem BioAssay AID256.

Test system: CD2F1 mice, L1210 leukemia ip, survival T/C
Test: NCI In Vivo Anticancer Drug Screen. Data for tumor model L1210 Leukemia (intraperitoneal) in CD2F1 (CDF1) mice
Conditions: endpoint: mean survival time; dose: 200.0 mg/kg/injection; schedule: Q01DX001 (ip); vehicle: saline; higher = longer survival
Toxic doses and inconclusive results are not listed.
Some compounds, each annotated with its measured T/C.
readoutType: T/C

>>> assayresult("CCC(=O)OCC[N+](C)(C)C")
"96 % of control"
>>> assayresult("CCOC(=O)C(F)(C(=O)OCC)[N+](=O)[O-]")
"104 % of control"
>>> assayresult("CN1CN(C2CCCCC2)CSC1=S")
"100 % of control"
>>> assayresult("CS(=O)(=O)/C(C#N)=N/O")
"101 % of control"
>>> assayresult("O=Cc1ccc[nH]1")
"100 % of control"
>>> assayresult("BrC/C(=N\\N1CCCCCC1)c1ccc(Br)cc1")
"92 % of control"
>>> assayresult("CC(=O)Nc1ccc(C(=O)C=P(c2ccccc2)(c2ccccc2)c2ccccc2)cc1")
"97 % of control"
>>> assayresult("O=C1CSC2(CCN(Cc3ccccc3)CC2)O1")
"102 % of control"
>>> assayresult("CC(O)CN(C)C (stereo unspecified)")
"103 % of control"
>>> assayresult("Nc1ncc[nH]1")
"110 % of control"
>>> assayresult("CC(=O)OC1CCC2(C)C(CCC3C2CCC2(C)C(c4cccc(=O)o4)CCC32)C1 (stereo unspecified)")
"97 % of control"
>>> assayresult("CC/C1=C/N(C=O)CCc2c([nH]c3ccccc23)C(C(=O)OC)(c2cc3c(cc2OC)N(C)C2C(O)(C(=O)OC)C(OC(C)=O)C4(CC)C=CCN5CCC32C54)CC(=O)C1 (stereo unspecified)")
"96 % of control"
>>> assayresult("CN(CCCOS(C)(=O)=O)CCCOS(C)(=O)=O")
"118 % of control"
>>> assayresult("Cc1nc(N)[nH]c(=O)c1CCCNS(=O)(=O)c1ccc(CN)cc1")
"101 % of control"
>>> assayresult("CCOC(=O)c1ccc(NS(=O)c2ccccc2)cc1 (stereo unspecified)")
"95 % of control"
>>> assayresult("Cc1c(O)c(Br)c(C)c(O)c1Br (tested in a mixture with another compound)")
"101 % of control"
